Numbers sourced from PubChem BioAssay (Tox21).

# Target desc: Nuclear receptor subfamily 1 group I member 2 (Rattus norvegicus) (UniProt Q9R1A7)
# Sequence (Q9R1A7 whole entry, looked up): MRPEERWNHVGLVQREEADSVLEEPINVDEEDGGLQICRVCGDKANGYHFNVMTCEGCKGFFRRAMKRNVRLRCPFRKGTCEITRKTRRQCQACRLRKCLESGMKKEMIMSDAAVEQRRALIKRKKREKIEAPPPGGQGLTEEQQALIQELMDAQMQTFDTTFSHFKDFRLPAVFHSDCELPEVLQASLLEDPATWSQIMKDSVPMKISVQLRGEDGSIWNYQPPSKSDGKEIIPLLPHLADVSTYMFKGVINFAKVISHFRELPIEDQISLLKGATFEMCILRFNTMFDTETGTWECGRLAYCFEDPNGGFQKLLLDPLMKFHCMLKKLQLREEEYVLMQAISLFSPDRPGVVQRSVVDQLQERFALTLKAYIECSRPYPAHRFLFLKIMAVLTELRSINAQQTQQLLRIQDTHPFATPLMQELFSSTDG
# Assay protocol: Rat pregnane X receptor (rPXR) activation by small molecules, qHTS assay (AID 1346983); also: nearly all actives have a fitted effect of over 20% in size
# Condition details: rPXR luciferase reporter cells, One-Glo luminescence, 24 h; active compounds read high
Inconclusive results are not listed.
Decision: max activation >= 10% yields met, all other cases yield not met.

CCOc1ccccc1C(N)=O | not met
CCn1cc(C(=O)O)c(=O)c2cc(F)c(N3CCNC(C)C3)c(F)c21 (stereo unspecified) | not met
CC1COc2c(N3CCN(C)CC3)c(F)cc3c(=O)c(C(=O)O)cn1c23 (stereo unspecified) | not met
COc1ccc(Cc2cnc(N)nc2N)cc1OC | met
CC(C(O)c1ccc(O)cc1)N1CCC(Cc2ccccc2)CC1 (stereo unspecified) | not met

Now turn to the next compound.
Exercise: Textbook exercise: given the entry CN(C)c1ccc(C(=C2C=CC(=[N+](C)C)C=C2)c2ccccc2)cc1 , state whether its max activation is greater than or equal to 10%.
Key: met
